// data source = paper PMC9763333

Measured pKa of individual entries
Measurement Protocol: pKa measurement by triple titration in methanol–water co-solvent with Yasuda-Shedlovsky extrapolation
Type: physicochemical
Condition Notes: methanol–water co-solvent, aqueous value by Yasuda-Shedlovsky extrapolation; read-out: pKa (second, measured)
Give the figure by itself; no unit, no explanation.

Input Smiles: CCNCc1nc2c(N)nc3ccccc3c2n1CC(C)(C)O
pKa: 8.02

Could you now look at the following molecule, please?
Query: Param item = `CCCCNc1nc(N)c2[nH]c(=O)n(Cc3ccc(OCCN(C)C)nc3)c2n1` ; retrieve measured pKa.
Result: 8.5

====

Measurement Protocol: Drug release from DC Bead LUMI in saline
Format: physicochemical
Condition Notes: DC Bead LUMI

Input Smiles: CCCCNc1nc(N)c2[nH]c(=O)n(Cc3ccc(OCCN(C)C)nc3)c2n1
release behaviour in saline: rapid release
//
Input Smiles: CCNCc1nc2c(N)nc3ccccc3c2n1CC(C)(C)O
release behaviour in saline: rapid release
//
Input Smiles: CC(C)Cn1cnc2c(N)nc3ccccc3c21
release behaviour in saline: rapid release

====

Measured Drug: sulfonate of individual entries
Measurement Protocol: Drug loading into DC Bead LUMI
Assay type: physicochemical
Condition Notes: molar ratio at maximum loading, DC Bead LUMI
Counter-ions that a name gives are not always drawn.

The cases that follow already have their Drug: sulfonate on record.
Compound: CCNCc1nc2c(N)nc3ccccc3c2n1CC(C)(C)O
Recorded Endpoint: Drug: sulfonate
Obs Value: 0.733

Compound: CCCCNc1nc(N)c2[nH]c(=O)n(Cc3ccc(OCCN(C)C)nc3)c2n1
Recorded Endpoint: Drug: sulfonate
Obs Value: 0.574

Compound: COc1cccc2c1C(=O)c1c(O)c3c(c(O)c1C2=O)C[C@@](O)(C(=O)CO)C[C@@H]3O[C@H]1C[C@H](N)[C@H](O)[C@H](C)O1 [Dox, doxorubicin hydrochloride]
Recorded Endpoint: Drug: sulfonate
Obs Value: 1.228

Compound: CC(C)Cn1cnc2c(N)nc3ccccc3c21
Recorded Endpoint: Drug: sulfonate
Obs Value: 0.946

Query: Param item = `COc1nc(OCc2cccc(-c3ccccc3)c2C)ccc1CNCCNC(C)=O` ; retrieve measured Drug: sulfonate.
Result: 1.223

====

Measurement Protocol: pKa measurement by triple titration in methanol–water co-solvent with Yasuda-Shedlovsky extrapolation
Type: physicochemical
Condition Notes: methanol–water co-solvent, aqueous value by Yasuda-Shedlovsky extrapolation; read-out: pKa (third, measured)
Recorded Endpoint: pKa
Give the figure by itself; no unit, no explanation.

Query: Param item = `CCCCNc1nc(N)c2[nH]c(=O)n(Cc3ccc(OCCN(C)C)nc3)c2n1` ; retrieve measured pKa.
Result: 9.94

====

Measured Theoretical maximum loading level based on SO3− contents of individual entries
Measurement Protocol: Drug loading into DC Bead LUMI
Type: physicochemical
Condition Notes: per mL DC Bead LUMI, assuming 1:1 drug to sulfonate
Structures can show the parent of a compound that is named as a salt.
State the answer as a number, implicitly in mg.

Compound: CCNCc1nc2c(N)nc3ccccc3c2n1CC(C)(C)O
Obs Value: 89.95
--
Compound: CCCCNc1nc(N)c2[nH]c(=O)n(Cc3ccc(OCCN(C)C)nc3)c2n1
Obs Value: 114.94
--
Compound: CC(C)Cn1cnc2c(N)nc3ccccc3c21
Obs Value: 68.97

Could you now look at the following compound, please?
Query: Param item = COc1cccc2c1C(=O)c1c(O)c3c(c(O)c1C2=O)C[C@@](O)(C(=O)CO)C[C@@H]3O[C@H]1C[C@H](N)[C@H](O)[C@H](C)O1 [Dox, doxorubicin hydrochloride] ; retrieve measured Theoretical maximum loading level based on SO3− contents.
Result: 166.50
